Hey, just so you know, these numbers are from ChEMBL document CHEMBL1909046.

System name: UniProt P33032
Sequence (P33032 whole entry): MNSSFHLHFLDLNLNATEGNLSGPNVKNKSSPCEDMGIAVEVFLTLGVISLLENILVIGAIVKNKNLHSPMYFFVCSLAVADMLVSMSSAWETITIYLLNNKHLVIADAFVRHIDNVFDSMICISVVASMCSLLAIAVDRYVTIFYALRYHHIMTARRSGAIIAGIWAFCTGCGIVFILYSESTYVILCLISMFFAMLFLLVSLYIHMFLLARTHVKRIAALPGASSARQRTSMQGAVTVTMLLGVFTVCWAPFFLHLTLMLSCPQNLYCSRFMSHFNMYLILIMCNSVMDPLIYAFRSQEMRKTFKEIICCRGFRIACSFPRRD
Assay type: cell membranes, HEK293, Membrane
Condition description: hek293; note: in other assays of this panel Not Active means under 50% inhibition at 10 µM
Measurement type: IC50

The following compounds have reported results that may help.
CN(C)C(=O)Oc1cc(OC(=O)N(C)C)cc(C(O)CNC(C)(C)C)c1 (stereo not drawn) [BAMBUTEROL] :: Not Active
CC[C@@H](CO)NC(=O)[C@@H]1C=C2c3cccc4[nH]cc(c34)C[C@H]2N(C)C1 [METHYLERGONOVINE] :: Not Active
CC[C@@]1(O)C[C@H](O[C@H]2C[C@H](N(C)C)[C@H](O[C@H]3C[C@H](O)[C@H](O[C@H]4CCC(=O)[C@H](C)O4)[C@H](C)O3)[C@H](C)O2)c2c(cc3c(c2O)C(=O)c2c(O)cccc2C3=O)[C@H]1C(=O)OC [ACLARUBICIN] :: Not Active
CCC1(c2ccc(N)cc2)CCC(=O)NC1=O (stereo not drawn) [AMINOGLUTETHIMIDE] :: Not Active
O=NN(CCCl)C(=O)NC1CCCCC1 [LOMUSTINE] :: Not Active
CC1(C)S[C@@H]2[C@H](NC(=O)Cc3ccccc3)C(=O)N2[C@H]1C(=O)O [PENICILLIN G] :: Not Active

I'm hoping you can list IC50 for every compound here, please.
1. Cc1ccc(N(CC2=NCCN2)c2cccc(O)c2)cc1 [PHENTOLAMINE]
2. CN(Cc1ccc(C(C)(C)C)cc1)Cc1cccc2ccccc12 [BUTENAFINE]

[A]
["Not Active", "Not Active"]
